The reported measurements were obtained from paper PMC10711433.

Molecular target: T1, FOXL2 C134W (Homo sapiens, UniProt P58012 1-376, C134W)
T1 sequence: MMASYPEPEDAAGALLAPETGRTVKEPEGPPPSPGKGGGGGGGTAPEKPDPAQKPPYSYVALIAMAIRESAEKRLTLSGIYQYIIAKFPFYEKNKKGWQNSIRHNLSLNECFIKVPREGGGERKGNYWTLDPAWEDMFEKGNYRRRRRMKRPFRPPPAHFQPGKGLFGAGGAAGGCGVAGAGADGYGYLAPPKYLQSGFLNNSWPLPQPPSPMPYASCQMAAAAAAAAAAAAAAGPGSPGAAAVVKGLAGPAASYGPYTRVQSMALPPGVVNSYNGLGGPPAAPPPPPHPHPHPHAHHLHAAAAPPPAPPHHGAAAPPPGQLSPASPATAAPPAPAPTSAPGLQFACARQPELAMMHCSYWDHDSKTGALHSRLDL
Experiment: pulldown; 37 C; 10 mM HEPES, 140 mM KCl, 25 mM NaCl, 1 mM MgCl2, 0.1 mM CaCl2; equimolar mix, tRNA
Conditions: tags: His-SUMO, cleaved
Metric Name: binding result

[[record]]
binder = "RF001 (ssRNA) RNA: GGGAGAGUAUCCGUUGAGGCUGACGUCAUUUGGUGGAUGGCGGAAGGAGGCGGAGGACGGGAAAUUCUGGAAAAGAUCGGAAGAGCGUCGUGUAGG"
result = "binds"

[[record]]
binder = "RF002 (ssRNA) RNA: GGGAGAGUAUCCGUUGAGGCUGAUCGGACUUUGGUGGUUGGAGGACGGAUGGACGGAGGUUUAUUAGGCUCGCAGAUCGGAAGAGCGUCGUGUAGG"
result = "binds"

